- System: nude mice, LX-1 lung xenograft intrarenal, tumor weight T/C
- Test: NCI In Vivo Anticancer Drug Screen. Data for tumor model Human Lung LX-1 Xenograft (intrarenal inoculation) in NU/NU Swiss (nude) mice
- Condition Set: endpoint: mean tumor weight change; dose: 150.0 mg/kg/injection; schedule: Q04DX003 (sc); vehicle: saline; higher = larger tumour
Results filed as inconclusive are left out.
Observable: T/C

| Compound | Reported Value |
| --- | --- |
| CC1=NN(c2cccc(S(=O)(=O)O)c2)C(=O)C1N=Nc1cc(Cl)cc(S(=O)(=O)O)c1O.CC1=NN(c2cccc(S(=O)(=O)O)c2)C(=O)C1N=Nc1cc(Cl)cc(S(=O)(=O)O)c1O.[Cr] (configuration not stated) | 171 % of control |
| Cc1ccccc1CN1C2=NCCN2C(=O)C2=C1CCN(S(=O)(=O)c1ccc(Cl)c(S(N)(=O)=O)c1)C2 | 77 % of control |
| Oc1ccc(CCl)c2cccnc12 | 78 % of control |
| COc1cc(NCCCCCCCNC(C)C)c2nccc(C)c2c1 | 87 % of control |
| O=CC(=O)c1ccc(O)cc1 | 51 % of control |
| CN(CCN(C)C(=O)CCOS(C)(=O)=O)C(=O)CCOS(C)(=O)=O | 58 % of control |
| COC(=O)c1ccoc1 | 107 % of control |

Ref: PubChem BioAssay AID264
